Where do the numbers come from? From patent US5250542A.

# Target Desc: mu receptor (Rattus norvegicus)
# Construct: rat whole brain minus cerebellum for mu was homogenized; from tissue; host or cells: brain of male Sprague Dawley rats, whole brain minus cerebellum, homogenate fraction
# Sequence (P33535 whole entry): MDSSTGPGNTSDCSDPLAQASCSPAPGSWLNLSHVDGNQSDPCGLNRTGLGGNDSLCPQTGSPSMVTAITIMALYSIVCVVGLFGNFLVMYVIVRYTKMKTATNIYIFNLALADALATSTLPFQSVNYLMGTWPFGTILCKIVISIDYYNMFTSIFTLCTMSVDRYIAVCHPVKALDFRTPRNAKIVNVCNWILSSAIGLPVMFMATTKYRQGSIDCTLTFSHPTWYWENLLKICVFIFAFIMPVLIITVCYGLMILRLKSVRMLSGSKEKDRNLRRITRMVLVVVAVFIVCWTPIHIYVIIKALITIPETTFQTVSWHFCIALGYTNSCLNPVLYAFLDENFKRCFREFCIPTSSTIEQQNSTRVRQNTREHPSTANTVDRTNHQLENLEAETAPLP
# Assay Details: opioid receptor binding assay, [3H] NAL (tritiated naloxone), mu receptor
# Set-up: species or system rat (Male Sprague Dawley), brain minus cerebellum
# Test Settings: 20 min, read-out: % displacement at 10 nM, 10 nM test compound; [3H] naloxone 0.5 nM
Counter-ions that a name gives are not always drawn.
# inhibition at 0.01 µM >= 90% gives met, anything below gives not met

>>> category_label("C[C@H]1CN(CCC(C(=O)O)c2ccccc2)CC[C@@]1(C)c1cccc(O)c1 (relative stereo) [Example 8B, hydrochloride]")
"met"
>>> category_label("CC(C)NC(=O)CNC(=O)C(Cc1ccccc1)CN1CC[C@@](C)(c2cccc(O)c2)[C@@H](C)C1 (stereo partly drawn) [Example 48, hydrochloride monohydrate]")
"met"
>>> category_label("C[C@H]1CN(CC(CC2CCCCC2)C(=O)NCCC(=O)OCc2ccccc2)CC[C@@]1(C)c1cccc(O)c1 (relative stereo) [Example 34, monohydrochloride]")
"not met"

Data request: Given the entry CCNC(=O)CCNC(=O)C(CC1CCCCC1)CN1CC[C@@](C)(c2cccc(O)c2)[C@@H](C)C1 (stereo partly drawn) [Example 37, monohydrochloride] , answer whether its inhibition at 0.01 µM meets or surpasses 90%.
Data returned: met

Data request: Next record, please: C[C@H]1CN(CCC(C(=O)NCCCC(=O)O)C2CCCCC2)CC[C@@]1(C)c1cccc(O)c1 (relative stereo) [Example 28, monohydrate]
Data returned: not met
